Measurement Target: CCK Receptor (Pancreas) (Rattus norvegicus, UniProt P30551)
Construct: The whole pancreas was dissected free of fat tissue and was homogenized
Assay Notes: CCK Receptor Binding (Pancreas), inhibition of specific 125I-CCK-8 binding
Condition: rat whole pancreas membranes; 50 pM 125I-CCK-8; 25°C for 2 hours
Where a name gives a salt, the structure may show the parent alone.
Reported Property: IC50 (nM)

P = CCCN1C(=O)C(NC(=O)Nc2cccc(C)c2)N=C(N2CCSCC2)c2ccccc21 (single isomer, unassigned; (+)) [Example 70, hydrochloride]
Q = Cc1cccc(NC(=O)NC2N=C(N3CCCCCCC3)c3ccccc3N(C)C2=O)c1 (single isomer, unassigned; (-)) [Example 51, hydrochloride]
R = CCc1cccc(NC(=O)NC2N=C(N3CCCCCC3)c3ccccc3N(C)C2=O)c1 (single isomer, unassigned; (-)) [Example 67, hydrochloride]
Data request: Please rank everything listed above by IC50, with the minimum value first. Ranked list of labels, please, in the requested order.
Data returned: P, R, Q

----------
Measurement Target: CCK Receptor (Pancreas) (Rattus norvegicus)
Construct: The whole pancreas was dissected free of fat tissue and was homogenized; from tissue; host or cells: rat pancreas membrane homogenate
Sequence (P30551 1-444): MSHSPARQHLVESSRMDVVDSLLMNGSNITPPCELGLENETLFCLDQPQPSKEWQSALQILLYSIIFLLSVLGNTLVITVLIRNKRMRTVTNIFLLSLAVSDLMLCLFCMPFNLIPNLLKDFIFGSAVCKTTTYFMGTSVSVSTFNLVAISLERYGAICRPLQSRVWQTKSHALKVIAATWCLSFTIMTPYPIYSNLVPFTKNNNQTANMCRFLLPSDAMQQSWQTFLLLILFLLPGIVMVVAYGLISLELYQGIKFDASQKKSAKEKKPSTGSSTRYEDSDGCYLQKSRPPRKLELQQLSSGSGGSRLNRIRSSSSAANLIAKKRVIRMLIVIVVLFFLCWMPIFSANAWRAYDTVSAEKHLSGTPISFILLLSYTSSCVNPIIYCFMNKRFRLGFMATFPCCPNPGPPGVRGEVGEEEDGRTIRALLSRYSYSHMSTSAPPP
Assay Notes: CCK Receptor Binding (Pancreas), inhibition of specific 125I-CCK-8 binding
Design: species or system Sprague-Dawley rats
Condition: rat whole pancreas membranes; 50 pM 125I-CCK-8; 25°C for 2 hours
Reported Property: IC50 (nM)

Answered examples (6):
INSERT INTO assay_data (compound, numeric_result) VALUES
  ('CCc1cccc(NC(=O)NC2N=C(N3CCCCCC3)c3ccccc3N(C)C2=O)c1 (racemic) [Example 63]', 4.39),
  ('CCc1cccc(NC(=O)NC2N=C(N3CCN(C)CC3)c3ccccc3N(CC(C)C)C2=O)c1 (single isomer, unassigned; (-)) [Example 26]', 4720),
  ('Cc1cccc(NC(=O)NC2N=C(N3CCN(C)CC3)c3ccccc3N(CC(C)C)C2=O)c1 (racemic)', 1800),
  ('CCCN1C(=O)C(NC(=O)Nc2cccc(C)c2)N=C(N2CCN(C)CC2)c2cc(C)ccc21 (racemic)', 1600),
  ('Cc1cccc(NC(=O)NC2N=C(N3CCCCCCCC3)c3ccccc3N(C)C2=O)c1 (racemic)', 36.1),
  ('CCCN1C(=O)C(NC(=O)Nc2cccc(C)c2)N=C(N2CCCCCC2)c2ccccc21 (racemic)', 23.4);

A = CCCN1C(=O)C(NC(=O)Nc2cccc(C)c2)N=C(N2CCN(C)CC2)c2ccc(C)cc21 (racemic)
B = CC(C)c1ccc(NC(=O)NC2N=C(N3CCCCCC3)c3ccccc3N(C)C2=O)cc1 (racemic)
C = CN1CCN(C2=NC(NC(=O)Nc3ccccc3)C(=O)N(C)c3ccccc32)CC1 (racemic)
D = CN(C)c1cccc(NC(=O)NC2N=C(N3CCCCCC3)c3ccccc3N(C)C2=O)c1 (racemic)
E = CCN1C(=O)C(NC(=O)Nc2cccc(C)c2)N=C(N2CCCCCC2)c2ccccc21 (racemic)
Data request: Arrange by IC50, high to low. Could you list the labels in the order requested?
Data returned: C, A, B, D, E

----------
Measurement Target: CCK Receptor (Pancreas) (Rattus norvegicus, UniProt P30551)
Construct: The whole pancreas was dissected free of fat tissue and was homogenized
Assay Notes: CCK Receptor Binding (Pancreas), inhibition of specific 125I-CCK-8 binding
Condition: rat whole pancreas membranes; 50 pM 125I-CCK-8; 25°C for 2 hours
Reported Property: IC50

INSERT INTO assay_data (compound, measurement_target, result) VALUES
  ('Cc1cccc(NC(=O)NC2N=C(N3CCCNCC3)c3ccccc3N(C)C2=O)c1 (racemic) [Example 16]', 'CCK Receptor (Pancreas) (Rattus norvegicus, UniProt P30551)', '> 3 µM');

Data request: Query for CCK Receptor (Pancreas) (Rattus norvegicus, UniProt P30551): what IC50 does the record show for Cc1ccc(NC(=O)NC2N=C(N3CCN(C)CC3)c3ccccc3N(C)C2=O)cc1 (racemic) [Example 6] ?
Data returned: > 3 µM

Data request: Write down the reported IC50 of CN1CCN(C2=NC(NC(=O)Nc3cccc(-c4nnn(C)n4)c3)C(=O)N(C)c3ccccc32)CC1 (racemic) [Example 13] , test system: CCK Receptor (Pancreas) (Rattus norvegicus, UniProt P30551).
Data returned: > 3 µM

Data request: Requested read-out IC50, target or system CCK Receptor (Pancreas) (Rattus norvegicus, UniProt P30551), entry CCNC(=O)c1cccc(NC(=O)NC2N=C(N3CCN(C)CC3)c3ccccc3N(C)C2=O)c1 (racemic) [Example 18]
Data returned: > 3 µM

----------
Measurement Target: CCK Receptor (Pancreas) (Rattus norvegicus, UniProt P30551)
Construct: The whole pancreas was dissected free of fat tissue and was homogenized
Assay Notes: CCK Receptor Binding (Pancreas), inhibition of specific 125I-CCK-8 binding
Condition: rat whole pancreas membranes; 50 pM 125I-CCK-8; 25°C for 2 hours
Reported Property: IC50 (µM)

Here is how some molecules turned out for IC50.
INSERT INTO assay_data (molecule, reported_property, numeric_result) VALUES
  ('CCc1cccc(NC(=O)NC2N=C(N3CCN(C)CC3)c3ccccc3N(CC(C)C)C2=O)c1 (single isomer, unassigned; (+)) [Example 27]', 'IC50', 3.08),
  ('CN1C(=O)C(NC(=O)Nc2ccc3c(c2)CCC3)N=C(N2CCCCCC2)c2ccccc21 (racemic) [Example 46]', 'IC50', 0.0282),
  ('CCCN1C(=O)C(NC(=O)Nc2cccc(C)c2)N=C(N2CCSCC2)c2ccccc21 (racemic) [Example 55]', 'IC50', 0.337),
  ('CCCN1C(=O)C(NC(=O)Nc2cccc(CC)c2)N=C(N2CCN(C)CC2)c2ccccc21 (racemic)', 'IC50', 2.4);

P = Cc1cccc(NC(=O)NC2N=C(N3CCCN(C)CC3)c3ccccc3N(C)C2=O)c1 (racemic)
Q = Cc1cccc(NC(=O)NC2N=C(N3CCSCC3)c3ccccc3N(C)C2=O)c1 (racemic)
Data request: Compare P and Q by numeric IC50 and name the larger one. // output: label of the selected item
Data returned: P
(P: 2.8 µM, Q: 0.0172 µM)
